B1: library; a variant is named by its letters at N, in order (parent)
chain: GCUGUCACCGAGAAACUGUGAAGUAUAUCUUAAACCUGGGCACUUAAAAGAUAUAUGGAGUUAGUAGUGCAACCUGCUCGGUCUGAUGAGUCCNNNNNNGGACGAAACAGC

# Variants of: B1
# assay_name: normalized RNA/DNA level with ligand (relative to sTRSVctl = 100) (log10 (% of sTRSVctl)); HEK293T; ligand: cyclic di-GMP (c-di-GMP-II aptamer); ligand concentration (+) RNA-Seq: 1 mM; higher = less ribozyme self-cleavage, higher mRNA level
# condition_label: reporter: mCherry (pCS4076), ligand present: yes
normalized RNA/DNA level with ligand (log10) values by entry
Format: numeric value only, no unit, no commentary.

ACCGGG = 1.91
AGCCUG = 1.81
AACCCG = 1.81
UGUCCC = 1.88
AUCACA = 1.8

Recorded normalized RNA/DNA level with ligand (log10) (variant GAAUCC ): 1.86

Recorded normalized RNA/DNA level with ligand (log10) (variant AUGAUA ): 1.71

Recorded normalized RNA/DNA level with ligand (log10) (variant AAAGGG ): 1.59

Recorded normalized RNA/DNA level with ligand (log10) (variant AAGAUA ): 1.63

Recorded normalized RNA/DNA level with ligand (log10) (variant CUGUUA ): 1.58

Recorded normalized RNA/DNA level with ligand (log10) (variant UCCCGA ): 1.87

Recorded normalized RNA/DNA level with ligand (log10) (variant UAUAGU ): 1.79
